# reported Context memory % immobility time, mean; entries follow
# Tested on: rats subjected to psychosocial stress
# Test description: Context memory test after predator exposure and housing instability
# Format: in vivo
# Stated conditions: daily i.p. 21 days: carpipramine 5, sertraline 5, amitriptyline 2, quetiapine 10 mg/kg, 5 min in chamber
Unit % implied. Number only.

Examples from the recorded data:
>>> val("OCCOCCN1CCN(C2=Nc3ccccc3Sc3ccccc32)CC1")
53.4
>>> val("NC(=O)C1(N2CCCCC2)CCN(CCCN2c3ccccc3CCc3ccccc32)CC1")
22.3
>>> val("CN(C)CCC=C1c2ccccc2CCc2ccccc21")
64.5

# ---- query compound ----
Task item: Specify measured Context memory % immobility time, mean for CN[C@H]1CC[C@@H](c2ccc(Cl)c(Cl)c2)c2ccccc21 .
Reply: 37.1

* * *

# Test system: rats subjected to psychosocial stress
# Test description: Cue memory test after predator exposure and housing instability
# Format: in vivo
# Stated conditions: daily i.p. 21 days: carpipramine 5, sertraline 5, amitriptyline 2, quetiapine 10 mg/kg, last 3 minutes (tone)
Readout label: Cue memory (during tone) % immobility time, mean (%)
Unit % implied. Number only.

Examples from the recorded data:
>>> val("NC(=O)C1(N2CCCCC2)CCN(CCCN2c3ccccc3CCc3ccccc32)CC1")
14.6
>>> val("OCCOCCN1CCN(C2=Nc3ccccc3Sc3ccccc32)CC1")
39.3
>>> val("CN(C)CCC=C1c2ccccc2CCc2ccccc21")
42.7

# ---- query compound ----
Task item: Report Cue memory (during tone) % immobility time, mean from rats subjected to psychosocial stress testing of CN[C@H]1CC[C@@H](c2ccc(Cl)c(Cl)c2)c2ccccc21
Reply: 25.7
